# testTarget: Urokinase (Abbokinase) (Homo sapiens)
# experimentalDetails: Urokinase chromogenic substrate (S-2444) IC50 assay
Non-standard residues stand in square brackets, D forms with d. Residues, ends and D or L forms follow the SMILES beside them. *: point of attachment. dDap = NC[C@@H](N)C(=O)O; Cbz = O=C(OCc1ccccc1)*

compound	testTarget	IC50
N=C(N)NCCC[C@@H](C=O)NC(=O)[C@@H]1CCCN1C(=O)[C@@H](CO)NC(=O)OCc1ccccc1 [Compound 11] (Cbz-[dS]-Pro-Arg-aldehyde)	Urokinase (Abbokinase) (Homo sapiens)	< 0.1 µM
N=C(N)NCCCC(C=O)NC(=O)CNC(=O)[C@@H](CO)NC(=O)OCc1ccccc1 (stereo partly drawn)	Urokinase (Abbokinase) (Homo sapiens)	0.1 to 0.25 µM
C[C@H](NC(=O)[C@@H](CNC(=O)OCc1ccccc1)NC(=O)OCc1ccccc1)C(=O)N[C@H](C=O)CCCNC(=N)N [Compound 42] (Cbz-[dDap](Cbz)-Ala-Arg-aldehyde)	Urokinase (Abbokinase) (Homo sapiens)	0.1 to 0.25 µM

----------
# testTarget: UniProtKB P00749
# experimentalDetails: Urokinase chromogenic substrate (S-2444) IC50 assay
pIC50: −log10 of the molar value. Non-standard residues stand in square brackets, D forms with d. Residues, ends and D or L forms follow the SMILES beside them. *: point of attachment. Fmoc = O=C(OCC1c2ccccc2-c2ccccc21)*; d(aThr) = C[C@@H](O)[C@@H](N)C(=O)O; NMeA = CN[C@@H](C)C(=O)O; Pra = C#CC[C@H](N)C(=O)O; dDap = NC[C@@H](N)C(=O)O; Aze = O=C(O)[C@@H]1CCN1; Cbz = O=C(OCc1ccccc1)*; Sar = CNCC(=O)O; Moc = COC(=O)*

compound	pIC50
C[C@@H](O)[C@@H](NC(=O)OCc1ccccc1)C(=O)N(C)CC(=O)N[C@H](C=O)CCCNC(=N)N [Compound 24] (Cbz-[d(aThr)]-[Sar]-Arg-aldehyde)	6.60 to 7.00
C[C@H](NC(=O)[C@@H](NC(=O)OCc1ccccc1)[C@@H](C)O)C(=O)N[C@H](C=O)CCCNC(=N)N [Compound 20] (Cbz-Thr-Ala-Arg-aldehyde)	6.60 to 7.00
CCCCOC(=O)N[C@H](CO)C(=O)N[C@@H](C)C(=O)N[C@H](C=O)CCCNC(=N)N [Compound 9]	> 7.00
C[C@H](NC(=O)[C@@H](CO)NC(=O)OCC1CCCCC1)C(=O)N[C@H](C=O)CCCNC(=N)N [Compound 36]	> 7.00
C[C@@H](O)[C@@H](NC(=O)OCc1ccccc1)C(=O)N(C)[C@@H](C)C(=O)N[C@H](C=O)CCCNC(=N)N [Compound 25] (Cbz-[d(aThr)]-[NMeA]-Arg-aldehyde)	6.60 to 7.00
C[C@H](NC(=O)[C@@H](C)NC(=O)OCc1ccccc1)C(=O)N[C@H](C=O)CCCNC(=N)N [Compound 21] (Cbz-[dA]-Ala-Arg-aldehyde)	6.60 to 7.00
C[C@H](NC(=O)[C@@H](CO)NC(=O)CCC1CCCCC1)C(=O)N[C@H](C=O)CCCNC(=N)N [Compound 35]	5.60 to 6.60
C[C@H](NC(=O)[C@@H](CO)NC(=O)OCC1c2ccccc2-c2ccccc21)C(=O)N[C@H](C=O)CCCNC(=N)N [Compound 10] (Fmoc-[dS]-Ala-Arg-aldehyde)	> 7.00
C#CC[C@H](NC(=O)[C@@H](CO)NC(=O)OCc1ccccc1)C(=O)N[C@H](C=O)CCCNC(=N)N [Compound 51] (Cbz-[dS]-[Pra]-Arg-aldehyde)	> 7.00
CC[C@@H](NC(=O)OCc1ccccc1)C(=O)N[C@@H](C)C(=O)NC(C=O)CCCNC(=N)N (stereo partly drawn) [Compound 44]	5.60 to 6.60
COC(=O)NC[C@@H](NC(=O)OCc1ccccc1)C(=O)N[C@@H](C)C(=O)N[C@H](C=O)CCCNC(=N)N [Compound 43] (Cbz-[dDap](Moc)-Ala-Arg-aldehyde)	5.60 to 6.60
N=C(N)NCCC[C@@H](C=O)NC(=O)[C@@H]1CCN1C(=O)[C@@H](CO)NC(=O)OCc1ccccc1 [Compound 12] (Cbz-[dS]-[Aze]-Arg-aldehyde)	> 7.00

----------
# testTarget: Human rt-PA (Activase) (Homo sapiens)
# Sequence (P00750 36-562): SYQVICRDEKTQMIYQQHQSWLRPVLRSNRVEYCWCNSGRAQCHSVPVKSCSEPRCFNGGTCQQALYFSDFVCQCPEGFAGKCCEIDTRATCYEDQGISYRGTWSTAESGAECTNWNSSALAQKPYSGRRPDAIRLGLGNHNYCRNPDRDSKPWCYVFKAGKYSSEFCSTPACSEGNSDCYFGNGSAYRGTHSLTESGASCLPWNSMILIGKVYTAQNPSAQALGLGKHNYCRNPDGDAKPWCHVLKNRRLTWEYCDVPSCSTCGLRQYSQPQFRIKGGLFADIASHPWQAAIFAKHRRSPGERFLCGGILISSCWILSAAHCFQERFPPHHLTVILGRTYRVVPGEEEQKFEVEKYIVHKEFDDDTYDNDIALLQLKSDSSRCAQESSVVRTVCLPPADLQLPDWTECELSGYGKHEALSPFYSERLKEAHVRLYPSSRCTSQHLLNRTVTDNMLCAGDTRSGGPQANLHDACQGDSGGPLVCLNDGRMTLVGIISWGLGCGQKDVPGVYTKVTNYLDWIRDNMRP
# experimentalDetails: Recombinant tissue plasminogen activator (rt-PA) chromogenic assay
# assayConditions: 30 minute preincubation, HBSA buffer; read-out: tPA IC50
# Procedure: rt-PA catalytic activity was determined using the substrate, Pefachrome t-PA (CH3SO2-D-hexahydrotyrosine-glycyl-L-arginine-p-nitroaniline, obtained from Pentap harm Ltd.). The substrate was made up in deionized water followed by dilution in HBSA prior to the assay in which the final concentration was 500 micromolar (about 3-times Km). […]
pIC50: −log10 of the molar value. Non-standard residues stand in square brackets, D forms with d. Residues, ends and D or L forms follow the SMILES beside them. *: point of attachment. Hydrocinnamoyl = O=C(CCc1ccccc1)*; dDap = NC[C@@H](N)C(=O)O; Cbz = O=C(OCc1ccccc1)*; Moc = COC(=O)*
Listing of entries alongside the reported pIC50.

molecule	pIC50
COC(=O)NC[C@@H](NC(=O)OCc1ccccc1)C(=O)N[C@@H](C)C(=O)N[C@H](C=O)CCCNC(=N)N [Compound 43] (Cbz-[dDap](Moc)-Ala-Arg-aldehyde)	< 5.60
CC(C)COC(=O)N[C@H](CO)C(=O)N[C@@H](C)C(=O)N[C@H](C=O)CCCNC(=N)N	< 5.60
COC(=O)N[C@H](CO)C(=O)N[C@@H](C)C(=O)N[C@H](C=O)CCCNC(=N)N [Compound 8] (Moc-[dS]-Ala-Arg-aldehyde)	< 5.60
C[C@H](NC(=O)[C@@H](CO)NC(=O)OCc1ccccc1)C(=O)N[C@H](C=O)CCCNC(=N)N [Compound 2] (Cbz-[dS]-Ala-Arg-aldehyde)	5.60 to 6.60
CCCCC(CC)COC(=O)N[C@H](CO)C(=O)N[C@@H](C)C(=O)N[C@H](C=O)CCCNC(=N)N (stereo partly drawn)	< 5.60
C[C@H](NC(=O)[C@@H](CNC(=O)CCc1ccccc1)NC(=O)OCc1ccccc1)C(=O)N[C@H](C=O)CCCNC(=N)N [Compound 41] (Cbz-[dDap](Hydrocinnamoyl)-Ala-Arg-aldehyde)	< 5.60

----------
Lab note: pIC50 readings collected with human plasmin (Homo sapiens, UniProt P00747) for the following compounds.
Sequence (P00747 581-810 limits assumed): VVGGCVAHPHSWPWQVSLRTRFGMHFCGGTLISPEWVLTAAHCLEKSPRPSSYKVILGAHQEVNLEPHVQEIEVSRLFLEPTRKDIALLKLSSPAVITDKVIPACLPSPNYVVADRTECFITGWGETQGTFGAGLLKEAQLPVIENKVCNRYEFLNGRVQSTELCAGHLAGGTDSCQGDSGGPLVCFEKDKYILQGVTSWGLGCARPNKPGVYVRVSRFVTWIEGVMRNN
Sequence (P00747 97-580 partner limits assumed): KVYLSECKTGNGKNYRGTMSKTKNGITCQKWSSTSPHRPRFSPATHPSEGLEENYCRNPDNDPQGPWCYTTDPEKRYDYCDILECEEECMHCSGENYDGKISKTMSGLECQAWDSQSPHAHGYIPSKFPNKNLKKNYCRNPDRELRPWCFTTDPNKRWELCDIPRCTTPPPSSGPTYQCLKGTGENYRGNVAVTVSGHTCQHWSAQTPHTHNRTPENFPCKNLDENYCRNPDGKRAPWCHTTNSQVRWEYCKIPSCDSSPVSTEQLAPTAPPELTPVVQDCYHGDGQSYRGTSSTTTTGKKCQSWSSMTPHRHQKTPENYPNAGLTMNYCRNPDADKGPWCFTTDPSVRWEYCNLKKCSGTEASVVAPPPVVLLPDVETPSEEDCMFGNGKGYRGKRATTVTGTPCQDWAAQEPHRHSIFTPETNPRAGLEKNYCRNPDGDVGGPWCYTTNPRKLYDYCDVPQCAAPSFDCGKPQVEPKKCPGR
pIC50: −log10 of the molar value. Starred links: 1 amine or outer side, 2 acyl side, 3 side chain; linkers in the order of their positions; H or OH if unused. Non-standard residues stand in square brackets, D forms with d. Residues, ends and D or L forms follow the SMILES beside them. *: point of attachment. cisHyp = O=C(O)[C@@H]1C[C@H](O)CN1; Hydrocinnamoyl = O=C(CCc1ccccc1)*; Pra = C#CC[C@H](N)C(=O)O; dDap = NC[C@@H](N)C(=O)O; Aze = O=C(O)[C@@H]1CCN1; Cbz = O=C(OCc1ccccc1)*; CO = O=C([*:1])[*:2]; NHBn = c1ccc(CN*)cc1

compound	pIC50
N=C(N)NCCC[C@@H](C=O)NC(=O)[C@@H]1C[C@H](O)CN1C(=O)[C@@H](CO)NC(=O)OCc1ccccc1 [Compound 49] (Cbz-[dS]-[cisHyp]-Arg-aldehyde)	5.60 to 6.60
C[C@H](NC(=O)[C@@H](CO)NC(=O)OCc1ccccc1)C(=O)N[C@H](C=O)CCCNC(=N)N [Compound 2] (Cbz-[dS]-Ala-Arg-aldehyde)	5.60 to 6.60
C[C@H](NC(=O)[C@@H](CNC(=O)CCc1ccccc1)NC(=O)OCc1ccccc1)C(=O)N[C@H](C=O)CCCNC(=N)N [Compound 41] (Cbz-[dDap](Hydrocinnamoyl)-Ala-Arg-aldehyde)	5.60 to 6.60
C[C@H](NC(=O)[C@@H](CO)NS(=O)(=O)CCCc1ccccc1)C(=O)N[C@H](C=O)CCCNC(=N)N	5.60 to 6.60
N=C(N)NCCC[C@@H](C=O)NC(=O)[C@@H]1CCCN1C(=O)[C@@H](CO)NC(=O)OCc1ccccc1 [Compound 11] (Cbz-[dS]-Pro-Arg-aldehyde)	5.60 to 6.60
N=C(N)NCCCC(C=O)NC(=O)C1CCN1C(=O)C(CO)NS(=O)(=O)c1ccccc1 (stereo not drawn)	5.60 to 6.60
CC[C@@H](NC(=O)OCc1ccccc1)C(=O)N[C@@H](C)C(=O)NC(C=O)CCCNC(=N)N (stereo partly drawn)	5.60 to 6.60
C#CC[C@H](NC(=O)[C@@H](CO)NC(=O)OCc1ccccc1)C(=O)N[C@H](C=O)CCCNC(=N)N [Compound 51] (Cbz-[dS]-[Pra]-Arg-aldehyde)	5.60 to 6.60
N=C(N)NCCC[C@@H](C=O)NC(=O)[C@@H]1CCN1C(=O)[C@@H](CO)NC(=O)OCc1ccccc1 [Compound 12] (Cbz-[dS]-[Aze]-Arg-aldehyde)	5.60 to 6.60
C[C@H](NC(=O)[C@@H](CO)NC(=O)NCc1ccccc1)C(=O)N[C@H](C=O)CCCNC(=N)N [Compound 38] ({NHBn-CO}-[dS]-Ala-Arg-aldehyde)	< 5.60
C[C@H](NC(=O)[C@@H](CNC(=O)OCc1ccccc1)NC(=O)OCc1ccccc1)C(=O)N[C@H](C=O)CCCNC(=N)N [Compound 42] (Cbz-[dDap](Cbz)-Ala-Arg-aldehyde)	6.60 to 7.00
C[C@H](NC(=O)[C@@H](CO)NCCCc1ccccc1)C(=O)N[C@H](C=O)CCCNC(=N)N	5.60 to 6.60
